Data provenance is PubChem BioAssay.

A collection of compounds and their measured composite z-score
Assay: small molecules captured by biotinylated probe aFGF2 – biochemical, small-molecule microarray, fluorescence 635/667, stem cell growth factor project, primary screen (AID 1067);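 further: measures binding of biotinylated aFGF2 protein to printed compounds on slides; z-score merges feature fluorescence and signal-to-noise across triplicate slides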
Conditions: higher = more signal

COC(=O)c1c(CC[C@@H](CO)NC(=O)N[C@H](Cc2ccccc2)Cn2cc(-c3ccccn3)nn2)oc(C(C)=O)c1C(=O)OC; -0.083
CCCCCN1CC=CC23O[C@@H]4C=CCOC(=O)[C@@H]4[C@H]2C(=O)N(C(C)CO)[C@@H]3C1=O (some centres undefined); -0.195
[N-]=[N+]=NCc1ccccc1[C@@H]1OC(c2ccc(OCCCO)cc2)=N[C@]1(CCS(=O)(=O)c1ccccc1)C(N)=O; 0.175

Now for the compound whose composite z-score we want.
For the compound CC(C)CN1C(=O)[C@@]2(c3ccc([N+](=O)[O-])cc3)CC(=O)N(C3CCCCC3)[C@@H]2c2ccc(CO)cc21 , what composite z-score is on record?
-0.0954

---

Assay: budding yeast growth modifiers under rapamycin – strain BY4716, OD600, 96 h, primary screen (AID 1091); further: test concentration not given here
Conditions: S. cerevisiae BY4716 + rapamycin, called active from +8 up or from −8 down
Activity calls are given as the source filed them.
// one of active, inactive, no free text

Example entries and their recorded answers appear below.
CN1C(=O)C2C=CC(C(O)C=Cc3ccc([N+](=O)[O-])cc3)N(Nc3ccccc3)C2C1=O (stereo not given); inactive
COC(=O)[C@]1(Cc2ccccc2)N=C(c2ccc(OCCCO)cc2)O[C@@H]1c1ccccc1N=[N+]=[N-]; active
COc1ccc([C@H]2OC[C@@H]3CCC(=O)N32)cc1; inactive

Please indicate how the test categorized CN(C)CCCCCCNC(=O)[C@@H]1C[C@@H]2C(=O)N[C@@H](CCCC[N+](C)(C)C)C(=O)N2[C@@H]1c1ccc(O)cc1 .
inactive

Please indicate how the test categorized CN(C)C(=O)[C@]1(Cc2ccccc2)N=C(c2ccc(OCCCO)cc2)O[C@@H]1c1ccccc1N=[N+]=[N-] .
inactive

Please indicate how the test categorized CC(C)Cc1ccc(CN2CC[C@@H](N)C2)cc1 .
inactive

Please indicate how the test categorized C#CCNCc1ccccc1 .
inactive

Please indicate how the test categorized COCCOC(=O)N1C(=O)[C@@]2(c3cc(C#CC4=CCCCC4)ccc31)[C@H](c1ccc(OCCO)cc1)N1[C@H](c3ccccc3)[C@H](c3ccccc3)OC(=O)[C@H]1[C@@H]2C(=O)N1CCc2cc(OC)c(OC)cc2C1 .
inactive

Please indicate how the test categorized O=C1C2C=CC(C(O)c3ccc(F)cc3)N(Nc3ccc([N+](=O)[O-])cc3)C2C(=O)N1c1ccccc1 (stereo not given) .
inactive

Please indicate how the test categorized C=C(CCCC)/C(=C/C[C@H](OC(C)=O)c1ccc(OCCO)cc1)c1cnc2ccccc2c1 .
inactive

Please indicate how the test categorized COC(=O)C[C@H]1O[C@@H](CCc2ccccc2)[C@@H](C)[C@@H]1[Si](C)(C)c1ccc(OC)cc1 .
inactive

Please indicate how the test categorized COC(=O)c1c2oc(c1C(=O)OC)C(=O)N[C@@H](C(C)C)Cn1cc(nn1)C1(CCCCC1)NC(=O)N[C@H](CO)CC2 .
inactive

Please indicate how the test categorized CC(c1ccccc1)C(O)C1C=CC2C(=O)N(c3ccccc3)C(=O)C2N1Nc1ccccc1 (stereo not given) .
inactive

Please indicate how the test categorized COc1ccc([Si](C)(C)[C@@H]2[C@@H](CCn3cc(CCO)nn3)O[C@]3(C(=O)N(Cc4cccc(N5C(=O)c6cccc7cccc5c67)c4)c4ccccc43)[C@H]2C)cc1 .
active

Please indicate how the test categorized Cc1ccc(S[C@]2(C(=O)NCC(C)C)CC(=O)N(Cc3cc(C(F)(F)F)cc(C(F)(F)F)c3)[C@@H]2c2ccc(CO)cc2)cc1 .
inactive

---

Assay: compound effects on lung adenocarcinoma cell viability – A549, calcein-AM fluorescence, 48 h, basal, profiling panel (AID 1162); further: test concentration not given here
Conditions: higher = more signal
# label = 1 if z-score >= -0.6 else -1

O=C1O[C@@H](c2ccccc2)[C@@H](c2ccccc2)N2[C@@H](c3ccccc3OCCO)[C@]3(C(=O)Nc4ccc(C#CC5(O)CCCCCC5)cc43)[C@@H](C(=O)N3CCN(c4ncccn4)CC3)[C@H]12; -1
CC=CC(O)C1C=CC2C(=O)N(C)C(=O)C2N1N(c1ccccc1)c1ccccc1 (configuration not stated); -1
C=C(CCCC)C(=O)CC[C@@H](OC(C)=O)c1ccc(CO)o1; -1
C=CCNC(=O)[C@H]1[C@@H]2C(=O)O[C@@H](c3ccccc3)[C@@H](c3ccccc3)N2[C@@H](c2ccc(OCCO)cc2)[C@]12C(=O)Nc1ccc(C#CCC(C(=O)OC)C(=O)OC)cc12; 1

Is z-score at least -0.6? Consider CO[C@H]1O[C@H](CO)[C@@H](OC(=O)Nc2ccccc2-c2ccccc2)[C@H](OC(=O)Nc2ccccc2-c2ccccc2)[C@@H]1OC(=O)Nc1ccccc1-c1ccccc1
1

Is z-score at least -0.6? Consider CCOC(=O)C1=CC[C@H]2C(=O)N(c3ccccc3)C(=O)[C@@H]12
1

Is z-score at least -0.6? Consider [N-]=[N+]=NCc1ccccc1[C@@H]1OC(c2ccc(OCCCO)cc2)=N[C@]1(CCS(=O)(=O)c1ccccc1)C(=O)N1CCOCC1
1

---

Assay: probe aInhba binding on compound microarray – biochemical, small-molecule microarray, 635/667 nm fluorescence, primary screen (AID 1148);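 further: score merges 667nm spot fluorescence with signal-to-noise for antibody binding to printed compounds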
Details: higher = more signal
valueType: composite z-score
// return just the number, without any unit appended

A selection of reference data follows.
CCCCN1CC=CC23O[C@@H]4C=CCCOC(=O)C4[C@H]2C(=O)N(CCCCCO)[C@@H]3C1=O (stereo partly drawn); -0.233
Cc1ccc(S[C@]2(C(=O)O)CC(=O)N(Cc3ccccc3C(F)(F)F)[C@@H]2c2ccc(CO)cc2I)cc1; -0.193
CC(C)CCC[C@@H](C)[C@H]1CC[C@@]2(C)C3=C(CC[C@]12C)[C@@]1(C)CC[C@H](OC(=O)c2ccc(C(F)(F)F)nc2)C(C)(C)C1CC3 (stereo partly drawn); 0.0411
COC(=O)[C@@]1(Cc2ccc(OC)cc2)[C@H]2c3cc(C(=O)N4CCCC4)n(CCSCCO)c3C[C@H]2CN1C(=O)c1ccccc1; 0.257
O=C1C2C=CC(C(O)COCc3ccccc3)N(Nc3ccc([N+](=O)[O-])cc3)C2C(=O)N1c1ccccc1 (stereo not drawn); 0.0743

For the compound O=C1C2C=CC(C(O)c3ccc(F)cc3)N(Nc3ccc([N+](=O)[O-])cc3)C2C(=O)N1c1ccccc1 (stereo not drawn) , what composite z-score is on record?
0.0487

For the compound CC(C)CNC(=O)[C@@]1(Cc2ccccc2I)c2ccccc2C(=O)N(Cc2ccccc2C(F)(F)F)[C@H]1c1ccc(CO)cc1 , what composite z-score is on record?
-0.128

For the compound C=C(CCCC)/C(=C/C[C@@H](OC(C)=O)c1ccccc1OCCO)c1cc(C(=O)OC)ccc1OC , what composite z-score is on record?
-0.15

For the compound COc1ccc(C(O)C2C=CC3C(=O)N(C)C(=O)C3N2N(c2ccccc2)c2ccccc2)c2ccccc12 (stereo not drawn) , what composite z-score is on record?
0.0342

For the compound [N-]=[N+]=Nc1ccccc1C[C@]1(C(=O)N2CCCCC2)COC(c2ccc(OCCCO)cc2)=N1 , what composite z-score is on record?
0.0108

---

Target: Neurogenic locus notch homolog protein 3 (Homo sapiens) (UniProt Q9UM47)
Sequence (Q9UM47 whole entry, looked up): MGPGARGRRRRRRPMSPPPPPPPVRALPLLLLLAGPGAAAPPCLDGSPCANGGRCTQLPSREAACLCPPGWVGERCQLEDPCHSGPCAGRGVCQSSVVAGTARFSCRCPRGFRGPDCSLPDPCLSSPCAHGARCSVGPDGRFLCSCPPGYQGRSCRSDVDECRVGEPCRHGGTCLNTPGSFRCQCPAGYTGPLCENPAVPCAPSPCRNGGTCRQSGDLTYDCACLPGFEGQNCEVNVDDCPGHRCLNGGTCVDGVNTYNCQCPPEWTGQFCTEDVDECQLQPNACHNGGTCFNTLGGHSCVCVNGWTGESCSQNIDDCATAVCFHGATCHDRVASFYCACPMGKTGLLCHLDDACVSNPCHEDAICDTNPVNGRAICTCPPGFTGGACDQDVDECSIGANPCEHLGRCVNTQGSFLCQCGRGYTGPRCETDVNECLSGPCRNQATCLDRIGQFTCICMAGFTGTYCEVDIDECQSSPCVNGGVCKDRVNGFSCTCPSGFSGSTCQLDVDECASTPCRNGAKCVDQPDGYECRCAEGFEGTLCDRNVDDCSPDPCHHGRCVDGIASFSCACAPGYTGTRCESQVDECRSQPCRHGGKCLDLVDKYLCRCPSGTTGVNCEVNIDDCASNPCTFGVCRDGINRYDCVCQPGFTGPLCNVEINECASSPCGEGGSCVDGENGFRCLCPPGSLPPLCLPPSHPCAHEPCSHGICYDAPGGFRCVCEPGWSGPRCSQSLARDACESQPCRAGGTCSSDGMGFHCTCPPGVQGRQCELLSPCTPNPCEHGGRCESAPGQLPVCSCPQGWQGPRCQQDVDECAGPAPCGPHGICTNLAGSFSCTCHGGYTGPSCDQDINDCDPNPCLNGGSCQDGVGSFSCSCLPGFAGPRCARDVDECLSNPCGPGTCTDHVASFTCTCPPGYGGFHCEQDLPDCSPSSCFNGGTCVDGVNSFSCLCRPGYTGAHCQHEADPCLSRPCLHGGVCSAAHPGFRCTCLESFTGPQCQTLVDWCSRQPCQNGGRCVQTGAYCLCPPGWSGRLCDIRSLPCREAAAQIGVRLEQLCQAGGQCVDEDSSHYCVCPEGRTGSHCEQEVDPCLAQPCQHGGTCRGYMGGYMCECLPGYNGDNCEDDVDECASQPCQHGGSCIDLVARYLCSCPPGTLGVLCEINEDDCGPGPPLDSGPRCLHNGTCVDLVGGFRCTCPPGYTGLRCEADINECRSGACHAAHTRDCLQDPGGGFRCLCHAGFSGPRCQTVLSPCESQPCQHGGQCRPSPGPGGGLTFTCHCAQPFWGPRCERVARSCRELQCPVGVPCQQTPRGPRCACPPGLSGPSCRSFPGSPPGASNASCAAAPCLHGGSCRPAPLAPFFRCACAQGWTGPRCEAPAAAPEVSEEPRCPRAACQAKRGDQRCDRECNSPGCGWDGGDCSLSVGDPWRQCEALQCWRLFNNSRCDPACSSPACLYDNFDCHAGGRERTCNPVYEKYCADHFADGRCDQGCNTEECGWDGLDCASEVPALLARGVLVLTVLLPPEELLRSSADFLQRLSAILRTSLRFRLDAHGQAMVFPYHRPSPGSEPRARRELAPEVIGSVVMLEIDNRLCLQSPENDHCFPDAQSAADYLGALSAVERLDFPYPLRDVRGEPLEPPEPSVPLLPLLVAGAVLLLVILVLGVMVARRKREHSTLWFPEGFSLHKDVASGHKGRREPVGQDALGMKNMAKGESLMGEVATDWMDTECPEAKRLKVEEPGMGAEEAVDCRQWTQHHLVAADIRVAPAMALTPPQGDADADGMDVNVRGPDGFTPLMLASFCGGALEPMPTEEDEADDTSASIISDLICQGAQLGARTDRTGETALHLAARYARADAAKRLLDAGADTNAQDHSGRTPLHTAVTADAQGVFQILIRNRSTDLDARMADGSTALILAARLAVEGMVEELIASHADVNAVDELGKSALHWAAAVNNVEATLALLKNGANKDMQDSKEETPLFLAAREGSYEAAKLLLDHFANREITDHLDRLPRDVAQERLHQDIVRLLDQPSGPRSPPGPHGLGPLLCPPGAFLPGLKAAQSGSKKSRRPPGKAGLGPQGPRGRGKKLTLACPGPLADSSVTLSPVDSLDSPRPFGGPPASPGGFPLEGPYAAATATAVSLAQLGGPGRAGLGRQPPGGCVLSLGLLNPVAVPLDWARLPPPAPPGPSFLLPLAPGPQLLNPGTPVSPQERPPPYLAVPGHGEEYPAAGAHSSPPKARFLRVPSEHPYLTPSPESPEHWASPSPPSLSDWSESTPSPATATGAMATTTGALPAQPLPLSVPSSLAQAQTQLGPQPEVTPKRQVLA
Test: small molecules binding NOTCH3 protein – biochemical, 635/667 nm fluorescence, primary screen (AID 1096)
Settings: small-molecule microarray, 635 nm fluorescence, higher = more signal
A collection of molecules and their measured composite z-score
// return just the number, without any unit appended

A selection of reference data follows.
Cc1ccc(C2C3C(=O)CC4C(=O)N(c5ccccc5)C(=O)C4C3CN2S(=O)(=O)c2ccc(C)cc2)cc1 (centres undefined); 1.12
COc1ccc(-c2cc3c(c(Cc4ccccc4)n2)[Si](C(C)C)(C(C)C)OC3)cn1; -0.459
CC(C)[Si](C#CCCCC#N)(O[C@H](c1ccccc1)c1cn(Cc2cccc(Cl)c2)nn1)C(C)C; 1.13
C=CCNC(=O)[C@@H]1[C@H]2C(=O)O[C@H](c3ccccc3)[C@H](c3ccccc3)N2[C@H](c2ccc(OCCO)cc2)[C@@]12C(=O)N(C(=O)OCCOC)c1ccc(C#CCNC(N)=O)cc12; 1.13

Now for the molecule whose composite z-score we want.
For the molecule [N-]=[N+]=NCc1ccccc1[C@@H]1OC(c2ccc(OCCCO)cc2)=N[C@]1(CCS(=O)(=O)c1ccccc1)C(N)=O , what composite z-score is on record?
1.08

---

Assay: basal CRE-LacZ reporter activity in PC12 – cell-based, unstimulated, primary screen (AID 1145)
Details: no forskolin, luminescence, 4.5 h, higher = more signal, called active from +8 up or from −8 down
The source made the active and inactive calls.
valueType: z-score

A selection of reference data follows.
CN1C(=O)C2C=CC(C(O)C=Cc3ccc([N+](=O)[O-])cc3)N(Nc3ccccc3)C2C1=O (configuration not stated); 0.426 (inactive)
COC(=O)[C@@]1(Cc2ccc(F)cc2)[C@H]2c3cc(C(=O)N(C)C)n(Cc4cc(C)n(C)n4)c3C[C@H]2CN1C(=O)c1ccccc1; 0.779 (inactive)

For the molecule O=C(CS)NCCCCCNC(=O)[C@@H]1C[C@@H]2C(=O)NCC(=O)N2[C@@H]1c1ccc(O)cc1 , what z-score is on record?
0.281 (inactive)

For the molecule CCOC(=O)[C@H]1C/C=C/C[C@H](C(=O)OCC)C(=O)O[C@H]2[C@@H](OC)O[C@H](CO)[C@@H](OC(=O)c3ccc(Br)cc3)[C@@H]2OC1=O , what z-score is on record?
0.342 (inactive)

For the molecule CCCCN1CC=CC23O[C@@H]4C=CCCOC(=O)C4[C@H]2C(=O)N(CCCCCO)[C@@H]3C1=O (some centres not stated) , what z-score is on record?
0.199 (inactive)

For the molecule COCCOC(=O)N1C(=O)[C@@]2(c3cc(C#CC4(O)CCCCCC4)ccc31)[C@H](C(=O)Nc1nc3ccccc3s1)[C@H]1C(=O)O[C@H](c3ccccc3)[C@H](c3ccccc3)N1[C@@H]2c1ccc(OCCO)cc1 , what z-score is on record?
-0.748 (inactive)

For the molecule CC(C)Cc1ccc(CN2CC[C@@H](N)C2)cc1 , what z-score is on record?
-0.688 (inactive)
